Listing of entries alongside the reported GI50.
System: HCC 2998
Experiment: NCI tumour cell line growth inhibition, 48 h
Activity calls are given as the source filed them. Rule as the data show it: active = GI50 up to about 1.1 µM and inactive = higher.
readout_kind: GI50

>>> measurement("CC1(C)OC(=S)N(c2ccccc2)C12C=Cc1cc3ccccc3nc1S2 (configuration not stated)")
"> 100 µM (inactive)"
>>> measurement("CCOP(=O)(OCC)/C(C#N)=C/c1c[nH]c2ccccc12")
"> 100 µM (inactive)"
>>> measurement("O=C(c1cc(=O)c2ccc(O)cc2o1)c1ccc(Cl)cc1Cl")
"9.75 µM (inactive)"
>>> measurement("COc1ccc2c(c1)C1=NCCN(C)c3ccc([N+](=O)[O-])c(c31)N2")
"1.26 µM (inactive)"
>>> measurement("NS(=O)(=O)c1ccc(NC(=O)N/N=C/c2ccccc2O)cc1")
"40.7 µM (inactive)"
>>> measurement("NCCCc1c(-c2ccccc2)[nH]c(N)nc1=O")
"> 100 µM (inactive)"
>>> measurement("Oc1ccc(NCc2cc(O)ccc2O)cc1")
"16.9 µM (inactive)"
>>> measurement("Oc1nnc(-c2ccc(F)cc2)cc1-c1ccccc1")
"78.5 µM (inactive)"
>>> measurement("Cc1ccccc1NC(=S)N/N=C(/c1ccccc1)c1ccccn1")
"3.22 µM (inactive)"
>>> measurement("O=Cc1cc(C(=O)OCc2ccccc2)n(S(=O)(=O)c2ccccc2)c1")
"17 µM (inactive)"
>>> measurement("CCc1nc2ccc(C(F)(F)F)cc2[nH]c1=O")
"> 100 µM (inactive)"
>>> measurement("CC(C)CC(=O)NS(=O)(=O)c1ccccc1")
"> 100 µM (inactive)"

---

System: MCF7
Assay: NCI tumour cell line growth inhibition, 48 h
Activity calls are given as the source filed them. Rule as the data show it: active = GI50 up to about 1.1 µM and inactive = higher.
Labels: active, inactive

>>> group_label("NS(=O)(=O)c1ccc(NC(=O)N/N=C/c2ccccc2O)cc1")
"inactive"
>>> group_label("COc1cc2c3c(n(C)c(=O)c2cc1OC)-c1cc2c(cc1/C3=C\\CCCCl)OCO2")
"inactive"
>>> group_label("Clc1ccc(Nc2nnc(CNc3ccc(-c4nnc(Nc5ccc(Cl)cc5)o4)cc3)o2)cc1")
"inactive"
>>> group_label("O=C(CSCC(=O)N/N=C/c1ccc2c(c1)OCO2)N/N=C/c1ccc2c(c1)OCO2")
"inactive"
>>> group_label("O=C(O)c1ccc(Nc2ccnc3cc(Cl)ccc23)cc1O")
"inactive"
>>> group_label("O=C(NC/C(Cl)=C/Cl)Nc1c2ccccc2nc2ccccc12")
"inactive"
>>> group_label("CCOC(=O)C(N)CSC(=O)NC (centres undefined)")
"inactive"
>>> group_label("CCCCCC(CO)C(O)(C(F)(F)F)C(F)(F)F (centres undefined)")
"inactive"
>>> group_label("O=C(O)c1ccc(C(=O)O)c(C(=O)Nc2ccc3c(c2)C(=O)c2ccccc2-3)c1")
"inactive"
>>> group_label("O=C(CCC1CCCCN1)Nc1ccc2c(c1)C(=O)c1ccc(NC(=O)CCN3CCCCC3)cc1C2=O (centres undefined)")
"inactive"
>>> group_label("COc1cccc2c1C(=O)c1c(O)c3c(c(O)c1C2=O)C[C@@](O)(C(=O)CO)CC3OC1CC(O)C(O)C(C)O1 (some centres undefined)")
"active"
>>> group_label("CCCCC[C@H](O)[C@H](C)C=C1SCCCS1")
"inactive"
>>> group_label("CN(C)CCCNC(=O)c1cc2/c(=C\\c3ccc(N(C)C)cc3)c3ccccc3n2[n+]1C")
"inactive"
>>> group_label("COc1ccc2cc1Oc1ccc(cc1)C[C@H]1c3cc(c(OC)cc3CCN1C)Oc1c(O)c(OC)cc3c1[C@H](C2)N(C)CC3")
"inactive"
>>> group_label("N#C[C@@]12CCCC(=O)[C@@H]1[C@H]1CCC[C@H]12")
"inactive"
>>> group_label("Nc1nc(NCC2(CO)CC2)cc(=O)[nH]1")
"inactive"
>>> group_label("CC(=O)O[C@H]1[C@@H]2OC(=O)[C@@](O)(CC3CCCO3)[C@@H]2CC(=O)[C@](C)(O)CC/C=C(\\C)CCC[C@@H]1C (some centres undefined)")
"inactive"
>>> group_label("Cc1cccc(NS(=O)(=O)c2ccc(/N=N/c3c(O)c(C(=O)O)cc4ccccc34)cc2)n1")
"inactive"
>>> group_label("O=C1c2ccccc2/C=C\\C(c2ccccc2)=N/N1c1ccccc1Cl")
"inactive"
>>> group_label("C1CSCCSS[C@@H]2CCCCC2SC1 (some centres undefined)")
"inactive"
>>> group_label("CC(NC(=O)c1ccc(Cl)c(Cl)c1)c1ccc(-c2ccccc2)cc1 (centres undefined)")
"inactive"
>>> group_label("COc1ccc2c(=O)c3ccoc3n(CC=C(C)C)c2c1")
"inactive"
>>> group_label("CCCCCc1cccc(=O)o1")
"inactive"
>>> group_label("Cc1ccc(S(=O)(=O)NN=C2C(C)CC(C(C)(C)C)CC2C)cc1 (centres undefined)")
"inactive"
>>> group_label("CC(O)/C=C/C1OC(=O)CC1Nc1ccc(C=O)cc1 (centres undefined)")
"inactive"
>>> group_label("CC(CCCCNC(=O)OC(C)(C)C)NC(=O)NC(C)CCCCNC(=O)OC(C)(C)C (centres undefined)")
"inactive"
>>> group_label("Cc1c(O)c(OC2OC(CO)C(O)C(O)C2O)cc2c1C=C[C@@H]1[C@@]2(C)C(=O)C[C@]2(C)[C@@H]([C@@](C)(O)C(O)/C=C/C(C)(C)O)[C@H](O)C[C@@]12C (some centres undefined)")
"inactive"
>>> group_label("Cc1ccc(S(=O)(=O)N/N=C2/CC3CCC4CC2CC34)cc1 (centres undefined)")
"inactive"
>>> group_label("C#CC[C@@]12CC(=O)C[C@@H]1CCC1(C2)OCCO1.C#CC[C@]12CC(=O)CC[C@H]1CC(=O)C2")
"inactive"

---

Listing of entries alongside the reported GI50.
System: NCI/ADR-RES
Assay: NCI tumour cell line growth inhibition, 48 h
The source made the active and inactive calls. No stated cut-off is given here; in the data, active = GI50 up to about 1.1 µM and inactive = higher.
readout_kind: GI50

>>> measurement("CC1=CCCC(C)(O)C2CC(CCC3(C)OC3CC1)C(C)C(=O)O2 (stereo not given)")
"> 100 µM (inactive)"
>>> measurement("Cc1c(N=NN(C)C)cc[n+]([O-])c1C")
"> 100 µM (inactive)"
>>> measurement("O=C(O)CSCc1cc2c(O)c(c1)Cc1cc(CSCC(=O)O)cc(c1O)Cc1cc(CSCC(=O)O)cc(c1O)Cc1cc(CSCC(=O)O)cc(c1O)C2")
"> 100 µM (inactive)"
>>> measurement("COC(=O)C1(CCCCl)CCCN1C(=O)OC(C)(C)C (stereo not given)")
"> 100 µM (inactive)"
>>> measurement("OC12CC3c4ccccc4NC3C3Oc4cccc5c4C31CCN(CC1CC1)C2C5 (stereo not given)")
"21.2 µM (inactive)"

---

Tested on: OVCAR-4
Assay: NCI tumour cell line growth inhibition, 48 h
Calls of active or inactive are those of the source. Cut-off read from the data, not from the text of the source: active = GI50 up to about 1.1 µM and inactive = higher. Where a SMILES comes first, the peptide text is derived from it. The star is where a group is joined. Boc = CC(C)(C)OC(=O)*
Labels: YES for active, NO for inactive

>>> group_label("CN(C)/N=N/c1nc2c(c(=O)n(C)c(=O)n2C)n1CC1CO1 (configuration not stated)")
"NO"
>>> group_label("NC1=C2C(Br)=CN([C@@H]3O[C@H](CO)[C@@H](O)[C@@H]3O)C2C(=O)N=N1 (some centres not stated)")
"NO"
>>> group_label("COC(=O)CNC(=O)C(Cc1ccccc1)NC(=O)C(CCSC)NC(=O)C(Cc1ccc(O)cc1)NC(=O)OC(C)(C)C (configuration not stated) (Boc-YMFG-OMe; configuration not given here)")
"NO"
>>> group_label("OC12CC3c4ccccc4NC3C3Oc4cccc5c4C31CCN(CC1CC1)C2C5 (configuration not stated)")
"NO"
>>> group_label("C#CC[C@@]12CC(=O)C[C@@H]1CCC1(C2)OCCO1.C#CC[C@]12CC(=O)CC[C@H]1CC(=O)C2")
"NO"
>>> group_label("COc1ccc(-c2c(C#N)c(N)nc(S)c2C#N)cc1")
"NO"
>>> group_label("O=C1C=CC(O)C2C1CC13SSC4(CC5C(=O)C=CC(O)C5N4C1=O)C(=O)N23 (configuration not stated)")
"YES"
>>> group_label("O=[N+]([O-])c1cccc(/C=N/NC2=CS(=O)(=O)C=C2)c1")
"NO"
>>> group_label("CC[C@@]1(O)C(=O)OCc2c1cc1n(c2=O)Cc2c-1nc1ccccc1c2/C=N\\NC(=O)C[n+]1ccccc1")
"NO"
>>> group_label("N#Cc1nc(Nc2ccc([N+](=O)[O-])cc2)sc1N")
"NO"
>>> group_label("COC(=O)c1cccc2cccc(C(=O)Nc3ccc(Cl)cc3)c12")
"NO"
>>> group_label("Cc1cc2nc(N3C(=O)/C(=C/c4ccc(N(C)C)cc4)N=C3c3ccccc3)sc2cc1C")
"NO"
>>> group_label("Cc1cccc(Nc2nc3ccccc3nc2NS(=O)(=O)c2ccccc2)c1")
"NO"
>>> group_label("CC(C)(C)c1cc2c(OP(c3ccccc3)c3ccccc3)c(c1)Cc1cc(C(C)(C)C)cc(c1OP(c1ccccc1)c1ccccc1)Cc1cc(C(C)(C)C)cc(c1OP(c1ccccc1)c1ccccc1)Cc1cc(C(C)(C)C)cc(c1OP(c1ccccc1)c1ccccc1)C2")
"NO"
>>> group_label("COc1cccc(-c2cc(O)c3cc(C)cnc3n2)c1")
"NO"
>>> group_label("O=CC1C(Cl)=Nc2nc3ccccc3n2C1c1ccccc1 (configuration not stated)")
"NO"
>>> group_label("COc1ccc([C@H]2CC(=O)N3CCCC3N2)cc1 (some centres not stated)")
"NO"
>>> group_label("COc1ccc(CNC(=O)[C@H](Cc2ccc(O)cn2)NC(C)=O)cc1OC")
"NO"
>>> group_label("CCn1c2c(n(CC)c1=S)-c1c(n(CC)c(=S)n1CC)SSSS2")
"NO"
>>> group_label("CC1(C)c2ccccc2C(=O)C12CCC(=O)CC2")
"NO"
>>> group_label("COc1ccc(C2SC(=N)Nc3c2c(C)nn3C(=O)c2ccc(Cl)cc2)cc1 (configuration not stated)")
"NO"
>>> group_label("COC(=O)C12Oc3ccc(-c4ccc5c(c4O)C(=O)C4=CCC(C)C(O)C4(C(=O)OC)O5)c(O)c3C(=O)C1=CCC(C)C2O (configuration not stated)")
"NO"
>>> group_label("Nc1c(S(=O)(=O)O)cc(Nc2cccc(S(N)(=O)=O)c2)c2c1C(=O)c1ccccc1C2=O")
"NO"
>>> group_label("CC(CCc1nc2ccccc2s1)(c1ccc(O)cc1)c1ccc(O)cc1")
"NO"
>>> group_label("N#C/C(=C/c1ccc([N+](=O)[O-])o1)c1ccccc1")
"NO"
>>> group_label("COc1cc2c(cc1OC)-c1c(cnn1C1OC(COC(C)=O)C(OC(C)=O)C(OC(C)=O)C1OC(C)=O)CC2 (configuration not stated)")
"NO"
>>> group_label("O=C1C(c2cnc3ccccc3n2)=C(O)c2ccccc21")
"NO"
>>> group_label("N#C/C(=C/c1cccc(Oc2ccccc2)c1)c1ccccc1")
"NO"
>>> group_label("O=c1[nH][nH]c(=O)n1Cc1ccccc1")
"NO"
>>> group_label("CC(C)Cn1cnc2c(SCc3ccc(Cl)cc3Cl)nc(N)nc21")
"NO"
>>> group_label("COc1cccc2c1C(=O)c1c(O)c3c(c(O)c1C2=O)C[C@@](O)(/C(C)=N/NC(=O)c1ccc(Cl)c(Cl)c1)C[C@@H]3OC1CC(N)C(O)C(C)O1 (some centres not stated)")
"YES"
>>> group_label("Cc1nn(C)c2nc3ccc(Cl)cc3c(-c3ccccc3)c12")
"NO"
>>> group_label("C[C@H](N)C(=O)Nc1ccc(-c2nc3ccccc3s2)cc1")
"NO"
>>> group_label("CC1(C)O[C@@H]2C[C@H]3[C@@H]4C[C@H](F)C5=CC(=O)C=C[C@]5(C)[C@@]4(F)[C@@H](O)C[C@]3(C)[C@]2(C(=O)CO)O1 [FLUOCINOLONE ACETONIDE]")
"NO"
>>> group_label("COC(=O)C1CC(C(=O)OC)c2nc3cc([N+](=O)[O-])ccc3nc21 (configuration not stated)")
"NO"
>>> group_label("CC(C)[C@]12O[C@H]1[C@@H]1O[C@@]13[C@@]1(C)CCC4=C(COC4=O)[C@@H]1C[C@@H]1O[C@@]13C2=O [TRIPTONIDE]")
"YES"
>>> group_label("O=[N+]([O-])c1ccc2nc3ccc([N+](=O)[O-])cn3c2c1")
"NO"
